Known IC50 of a selection of binders
Molecular target: DRB1*0301
Assay: binding to purified HLA

{"columns": ["BINDER", "RESULT_UNITS", "IC50"],
 "data": [
  ["AAANFVAAYTLHAAA [N4.Y9.H12]", "nM", 171],
  ["AAAHFVAANTLHAAA [H4.N9.H12]", "nM", 361],
  ["AAAEFVAAYTLHAAA [E4.Y9.H12]", "nM", 144],
  ["AAAEFVAAWTLHAAA [E4.H12]", "nM", 134],
  ["AAAHFVAAFTLKAEA [H4.F9.E14]", "nM", 855]
]}
